B1: Poly(rC)-binding protein 1, residues 278 to 350; numbered along this chain, Q15365 (parent)
chain: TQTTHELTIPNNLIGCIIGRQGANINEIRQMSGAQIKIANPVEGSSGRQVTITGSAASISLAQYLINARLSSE

Variants of: B1
Experiment Notes: abundance fitness (aPCA) (normalised: wild type 0, dead -1); higher = more abundant; growth selection in yeast, the domain comes from the species named
Study Conditions: Homo sapiens
Decision: abundance fitness >= -0.06 yields rule met, all other cases yield rule not met.

The examples below pair each entry with its known result.
Mutant | Group
G33F | rule not met
A34K | rule not met
L61N | rule not met
N24R | rule met
G33Y | rule not met

Q: Could you verify whether the entry S55Y shows abundance fitness of no less than -0.06?
Ans: rule not met

Q: Decide: abundance fitness of T51Q >= -0.06?
Ans: rule not met

Q: State whether the measured abundance fitness reaches -0.06, counting equality as reaching it, for N26Q
Ans: rule met

Q: Determine whether this variant has abundance fitness no lower than -0.06: I38L
Ans: rule not met

Q: Check the entry L70K : does abundance fitness equal or exceed -0.06?
Ans: rule not met

Q: Does T51L have a reported abundance fitness of at least -0.06?
Ans: rule met

Q: # check: abundance fitness of A62W is greater than or equal to -0.06
Ans: rule not met
